assay.target: T1, biotinylated hOX40L (R&D Systems, biotinylated in house) (human, UniProt P23510 51-183, biotinylated with Sulfo-NHS-LC-Biotin, sites not stated)
T1 construct: same bought protein as m10, biotinylated; also called biotinylated OX40L
T1 sequence: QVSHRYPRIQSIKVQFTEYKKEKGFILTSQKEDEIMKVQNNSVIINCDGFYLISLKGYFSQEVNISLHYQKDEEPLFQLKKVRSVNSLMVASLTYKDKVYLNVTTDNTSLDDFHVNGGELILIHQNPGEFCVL
experiment: AlphaScreen, 120 pM biotinylated hOX40L + 0.2 nM hOX40/Fc
Mark 1 only for IC50 values smaller than 0.5 nM; exact matches and larger values are -1.

## Task For OX40L15B07 (VHH, monovalent Nanobody from E. coli; not shown: C-terminal c-myc and His6 tag) VHH: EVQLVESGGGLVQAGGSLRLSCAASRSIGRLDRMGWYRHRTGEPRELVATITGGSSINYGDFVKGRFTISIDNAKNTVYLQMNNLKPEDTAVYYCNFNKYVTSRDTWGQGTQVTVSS , is the recorded IC50 below the cut-off of 0.5 nM?
## Result 1

## Task For anti-OX40L benchmark Fab (Fab, V domains shown, papain digest of benchmark IgG; also called LC001 Fab) VH: EVQLLESGGGLVQPGGSLRLSCAASGFTFNSYAMSWVRQAPGKGLEWVSIISGSGGFTYYADSVKGRFTISRDNSRTTLYLQMNSLRAEDTAVYYCAKDRLVAPGTFDYWGQGALVTVSS VL: DIQMTQSPSSLSASVGDRVTITCRASQGISSWLAWYQQKPEKAPKSLIYAASSLQSGVPSRFSGSGSGTDFTLTISSLQPEDFATYYCQQYNSYPYTFGQGTKLEIKR , is the recorded IC50 below the cut-off of 0.5 nM?
## Result -1

## Task For OX40L01E07 (VHH, monovalent Nanobody from E. coli; not shown: C-terminal c-myc and His6 tag) VHH: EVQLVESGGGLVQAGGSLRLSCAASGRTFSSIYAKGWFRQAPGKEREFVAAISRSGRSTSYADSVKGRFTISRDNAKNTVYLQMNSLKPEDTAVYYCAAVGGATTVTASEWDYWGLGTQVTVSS , is the recorded IC50 below the cut-off of 0.5 nM?
## Result 1

## Task For OX40L19A07 (VHH, monovalent Nanobody from E. coli; not shown: C-terminal c-myc and His6 tag) VHH: EVQLVESGGGLVQAGGSLRLSCAASGFTLDDYAIAWFRQAPGKEREGVSRIKISNGRTTYAGSVKGRFTISSDNAKNTVYLQMNSLNAEDTAVYYCAADRSSLLFGSNWDRKARYDYWGQGTQVTVSS , is the recorded IC50 below the cut-off of 0.5 nM?
## Result -1

## Task For OX40L18E09 (VHH, monovalent Nanobody from E. coli; not shown: C-terminal c-myc and His6 tag) VHH: EVQLVESGGGLVQAGGSLRLSCAASRNILSLNTMGWYRHAPGKPRELVARISSNSKTDYADSVKGRFTISRDNAKNTVLLQMNSLKPEDTGVYYCNLNVWRTSSDYWGQGTQVTVSS , is the recorded IC50 below the cut-off of 0.5 nM?
## Result 1

## Task For OX40L01B11 (VHH, monovalent Nanobody from E. coli; not shown: C-terminal c-myc and His6 tag) VHH: EVQLVESGGGLVQAGGSLRLSCVASGRSFSTYIMGWFRQAPGKEREFVATISRSGITTRSADSVKGRFTISRDNAKNTVYLQMNSLKPEDTAVYYCAAGPYVEQTLGLYQTLGPWDYWGQGTQVTVSS , is the recorded IC50 below the cut-off of 0.5 nM?
## Result 1

## Task For OX40L19D08 (VHH, monovalent Nanobody from E. coli; not shown: C-terminal c-myc and His6 tag) VHH: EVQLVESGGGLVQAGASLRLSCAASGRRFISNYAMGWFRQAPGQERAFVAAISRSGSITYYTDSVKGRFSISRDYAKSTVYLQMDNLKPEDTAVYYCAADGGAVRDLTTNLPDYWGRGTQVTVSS , is the recorded IC50 below the cut-off of 0.5 nM?
## Result 1

Reference for the values: patent US20150218281A1
